biological target: PD-1 on PD-1 reporter Jurkat cells (PATHHUNTER Checkpoint Signaling Assay) (UniProt Q15116 25-288); test: cell-based or functional assay
Sequence (Q15116 25-288): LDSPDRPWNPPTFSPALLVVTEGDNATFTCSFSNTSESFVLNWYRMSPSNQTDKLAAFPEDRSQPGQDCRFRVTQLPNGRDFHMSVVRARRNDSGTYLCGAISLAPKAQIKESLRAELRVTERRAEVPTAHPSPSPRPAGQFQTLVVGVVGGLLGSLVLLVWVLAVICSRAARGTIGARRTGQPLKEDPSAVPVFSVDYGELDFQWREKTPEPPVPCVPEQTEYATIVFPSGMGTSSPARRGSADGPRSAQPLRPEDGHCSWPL
propertyLabel: PD-1 Signaling EC50 (second incubation at 4 C), IgG

Prompt: PD-1 Signaling EC50 (second incubation at 4 C), IgG for Anti-PD-1 IgG #2 (antibody, V domains shown, IgG format; In the 'IgG/xlink' columns it was crosslinked 1:1 with goat anti-human IgG F(ab')2 fragment; also called Antibody #2 (IgG format); #2 IgG) VH: QVQLQESGPGVVKPSGTLSLTCAISGGSIGSGGSIRSTRWWSWVRQSPGKGLEWIGEIYHSGSTNYNPSLKSRVTISLDKSRNHFSLRLNSVTAADTAVYYCARQDYGDSGDWYFDLWGKGTMVTVSS VL: NFMLTQPHSVSESPGKTVTISCTRSSGSIASNSVQWYQQRPGSSPTTVIYEDNQRPSGVPDRFSGSIDSSSNSASLTVSGLKTEDEADYYCQSSDSSAVVFGSGTKLTVL ?
Completion: 5.9 nM

Prompt: PD-1 Signaling EC50 (second incubation at 4 C), IgG for Anti-PD-1 IgG #3 (antibody, V domains shown) VH: QVQLVQSGAEVKKPGASVKVSCKVSGYSLSKYDMSWVRQAPGKGLEWMGIIYTSGYTDYAQKFQGRVTMTEDTSTDTAYMELSSLRSEDTAVYYCATGNPYYTNGFNSWGQGTLVTVSS VL: DIQMTQSPSSLSASVGDRVTITCQASQSPNNLLAWYQQKPGKAPKLLIYGASDLPSGVPSRFSGSGSGTDFTLTISSLQPEDFATYYCQNNYYVGPVSYAFGGGTKVEIK ?
Completion: 0.19 nM

Prompt: PD-1 Signaling EC50 (second incubation at 4 C), IgG for Anti-PD-1 IgG #4 (antibody, V domains shown) VH: QVQLVQSGSELKKPGASVKVSCKASGYTFTDYSMHWVRQAPGQGLEWMGWINIETGEPTYAQGFTGRFVFSLDTSVSTAYLQISSLKAEDTAVYFCARDYYGTYFYAMDYWGQGTLVTVSS VL: EIVLTQSPATLSLSPGERATLSCTASSSVSSSYLHWYQQKPGLAPRLLIYSTSNLASGIPDRFSGSGSGTDYTLTISRLEPEDFAVYYCHQYHRSPLTFGQGTKLEIK ?
Completion: 0.89 nM

Prompt: PD-1 Signaling EC50 (second incubation at 4 C), IgG for Anti-PD-1 IgG #1 (antibody, V domains shown, IgG format; In the 'IgG/xlink' columns it was crosslinked 1:1 with goat anti-human IgG F(ab')2 fragment; also called Antibody #1 (IgG format)) VH: EVQLQESGPGLVKPSQTLSLTCTVTGYSITSDYAWNWIRQPPGKKLEWMGYINYSGSTSYNPSLKSRVTISRDTSKNQFSLKLSSVTAADTAVYYCARWIGSSAWYFDVWGQGTLVTVS VL: DVLMTQTPLSLSVTPGQPASISCRSGQNIVHSNGNTYLEWYLQKPGQSPKLLIYKVSNRFFGVPDRISGSGSGTDFTLKISRVEAEDVGVYFCFQGSHVPFTFGQGTKLEIK ?
Completion: 29 nM
